- Assay info: yeast display, Sf9 membrane polyspecificity reagent, FACS + sequencing; frameworks hold sequencing errors
Reported property: polyreactivity (PSR sort gate)

polyreactivity (PSR sort gate) for QVQLVESGGGLVQAGGSLRLSCAASGFTFTTYVMGWYRQAPGKERELVAAISRRGTSTRYADSVKGRFTISRDNAKNTVYLQMNSLKPEDTAVYYCAADRPYSIVPYDYWGQGTQVTVSS ?
high polyreactivity

Proceed to QVQLVESGGGLVQAGGSLRLSCAASGRIFPEYAMGWYRQAPGKERELVAAITSSGRTYYADSVKGRFTISRDNAKNTVYLQMNSLKPEDTAVYYCAASFRRYYRWDYGFWGQGTQVTVSS
high polyreactivity

====

- Assay info: yeast display, Sf9 membrane polyspecificity reagent, FACS + sequencing; frameworks hold sequencing errors
Reported property: polyreactivity (PSR sort gate)

Some entries whose results are on file:
polyreactivity (PSR sort gate) for QVQLVESGGGLVQAGGSLRLSCAASGSIFVKYAMGWYRQAPGTERELVAAISWSGDSTYYADSVKGRITISRDNAKNTVYLQMNSLIPEDTAVYFCAAYSGYGGVSMYYWGQGTQVTVSS ?
low polyreactivity

Proceed to QVQLVESGGGLVQAGGSLRLSCAASGSTFGYNAMGWYRQSPGKERELVAAISYSGGSTYYADSVKGRFTISRDNAKNTVYLLMNSLKPEDTAVYYCAKETNRVGRYHWGQGTQVNVSS
low polyreactivity

Proceed to QVQLVESGGGLVQAGGSLRLSCAASGSIFTNNAMGWYRQAPGKETELVAAISWSGGSTYYADSVKGRFTISRDNAKNTVYLQMNSLKPEDTAVYYCAARRWGGPRYKYNYWGQGTQVTVSS
high polyreactivity

Proceed to QVQLVESGGGLVQAGGSLRLSCAASGRTFYRYAMGWYRQAPGKERELVAAISYSGGSTYYADSVKGRFTISRDNAKNTVYLQMNSLKPEDTAVYYCNARPVKASYVGYNYWGQGTQVTVSS
high polyreactivity

Proceed to QVQLVESGGGLVQAGGSLRLSCAASGRTLQWYAMGWYRQAPGKERELVATISSGGSTKYADSVKGRFTISRDNAKNTVYLQMNSLKPEDTAVYYCNAQPYGIYYHRYYYWGQGTQVTVSS
low polyreactivity

Next:
polyreactivity (PSR sort gate) for QVQLVDSGGGLVQAGGSLRLSCAASGNTFSGNTMGWYRQAPGKERELVAAIRFTGGSTTYADSVKGRFTISRDNAKNTVYLQMNSLKPEDTAVYYCNTDWVSFRSIYHEYDYWGQGTQVTVSS ?
low polyreactivity

Proceed to QVQLVESGGGLVQAGGSLRLSCAASGNTFSGTTMGWYRQAPGKERELVAAIRFTGGSTTYADSVKGRFTISRDNAKNTVYLQMNRLKPEDTAVYYCNTDWVSFRSIYHEYDYWGQGTQVTVSS
low polyreactivity

Proceed to QVQLVESGGGLVQAGGSLRLSCAASGSIFRPYAMGWYRQAPGKERVLVAAISRRGGSTYYADSVKGRFTISRDNAKNTVYLQMNSLKPEDTAVYYCAADHSRPSPYGYGYWGQGTQVTVSS
high polyreactivity

Proceed to QVQLVDSGGGLVQAGGSLRLSCAASGRTFYAYAMGWYRQAPGKERELVATISSSDASTYYADSVKGRFTISRDNAKKTVYLLMNSLKPEDTAVYYGNADFVRPSWARGRNNGLYYWGQGTQVTVSS
low polyreactivity

Proceed to QVQLVESGGGLVQAGGSLRLSCAASGSIFGVNAMGWYRQAPGKERELVAAISSSTGRTYYADSVKGRFTISRDNAKNTVYLQMNSLKPEDTAVYYCAADFTSYRRGWTYGYWGQGTQVTVSS
high polyreactivity

Proceed to KVQLVESGGGLVQAGGSLRLSCAASGNPLLFNALGWYRQAPGKERELVARITSSGASTYYADSVKGRFTISRDNAKNTLYLQMNSLKAEDTAVYYCAARTRTRRGYTSGDYWGQGSQVTVSS
high polyreactivity

Proceed to QVQLVESGGGLVQAGGSLRLSCAASGITFLKYAMGWYRQATGKEREFVAAISRRGGSTYYADSVKGRFTISRDNAKNTVYLQMNSLKPEDTAVYYCAALTVRGTWSQNDYWGQGTQVTVSS
low polyreactivity
